System: MARK4
Details: concentration: 1 μM, replicates: in singlicate; n = 1;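 also: KINOMEscan kinase panel screen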
// reported %Inh for each item listed
Numeric answer plus unit only.

INSERT INTO assay_data (compound, value_kind, recorded_measurement) VALUES
  ('COc1ccc(Nc2nccc(N3CCC(NC(=O)Nc4cc(C)ccc4C)C3)n2)cc1 (centres unmarked)', '%Inh', '0%'),
  ('Cc1c2ccc(N(C)c3ccnc(Nc4cccc(S(N)(=O)=O)c4)n3)cc2nn1Cc1ccccc1.Cl.Cl', '%Inh', '36%'),
  ('c1ccc(-c2n[nH]cc2-c2ccnc3ccccc23)nc1', '%Inh', '6%'),
  ('CC(=O)Nc1ccc(COc2ccc(Nc3ccnc4cc(-c5ccccn5)ccc34)cc2)cc1.Cl', '%Inh', '0%'),
  ('Cc1cccc(-c2nc(Nc3ccc4ncsc4c3)c3ccccc3n2)n1', '%Inh', '9%'),
  ('Cc1cccc(Cn2ccn3c(=O)cc(N4CCOCC4)nc23)c1', '%Inh', '10%'),
  ('COc1ccc(S(=O)(=O)NC2CCN(c3cc(C)nc(Nc4cccc(C#N)c4)n3)CC2)cc1.O=C(O)C(F)(F)F', '%Inh', '0%');

With those in mind, consider the next compound.
Reported %Inh for CCc1nc(-c2cccc(C)c2)c(-c2ccnc(NCc3ccccc3)c2)s1 : what is it?
0%

* * *

Tested on: CAMK1G
Conditions: concentration: 1 μM, replicates: in singlicate; n = 1
VALUE KIND: %Inh (%)
A number alone suffices; assume %.

Field: example entries. Status: answers known.
INSERT INTO results (sample_smiles, unit_spec, recorded_measurement) VALUES
  ('Cc1ccc(NC(=O)c2ccnc(N3CCN(C)CC3)c2)cc1-c1ccc(C(=O)NCC2CC2)cc1', '%', 0),
  ('Cc1cccc(-c2nc(-c3ccc(S(C)(=O)=O)cc3)sc2-c2ccncc2)c1', '%', 9);

With those in mind, consider the next compound.
Reported %Inh for O=c1cc(N2CCOCC2)nc2n(Cc3cccc(Cl)c3Cl)c(C3CC3)nn12 : what is it?
5

* * *

Test system: TXK
Details: concentration: 1 μM, replicates: in singlicate; n = 1
VALUE KIND: %Inh (%)
A number alone suffices; assume %.

INSERT INTO results (compound, value_kind, recorded_measurement) VALUES
  ('Cc1ccc(C(=O)NCC(N)=O)cc1-n1c(C)cc(OCc2ccc(F)cc2F)c(Br)c1=O', '%Inh', 21);

Reported %Inh for COc1ccc(CNC(=O)NC2CCN(c3ccnc(Nc4ccc(OC)cc4)n3)C2)cc1 (stereo not drawn) : what is it?
0

Reported %Inh for COC(=O)Nc1nc2cc(Oc3ccc(NC(=O)Nc4cc(F)ccc4F)cc3)ccc2[nH]1.Cl : what is it?
88

Reported %Inh for COc1cc2c(cc1OCCN1CCN(C)CC1)ncc1c3ccc(C#N)cc3[nH]c21 : what is it?
0

Reported %Inh for COc1ccc(Nc2ncc(C#N)c(Nc3ccccc3C(N)=O)n2)cc1N1CCN(C)CC1.Cl : what is it?
84

Reported %Inh for Cc1cn2c(=O)cc(N3CCOCC3)nc2n1Cc1cccc(Cl)c1Cl : what is it?
8

* * *

Test system: SRC
Details: concentration: 1 μM, replicates: in singlicate; n = 1
VALUE KIND: %Inh (%)
A number alone suffices; assume %.

INSERT INTO assay_data (compound, recorded_measurement) VALUES
  ('CCc1ccnc(/C=C/c2n[nH]c3cc(Sc4ccccc4C(=O)NC)ccc23)c1', 4),
  ('O=C1Cc2cc(Nc3nc(NCc4cccc(S(=O)(=O)C(F)(F)F)c4)ncc3C(F)(F)F)ccc2N1', 0),
  ('[2H]C([2H])(c1cccc(C(F)(F)F)c1C)n1ccn2c(=O)nc(N3CCOCC3)cc12', 0),
  ('O=C1NC(=O)C(N2CCc3ccccc32)=C1c1cccc(Cl)c1', 10),
  ('O=C(NCCCN1CCOCC1)c1cccc(Nc2nccc(Nc3ccc(Oc4ccccc4)cc3)n2)c1', 81);

Reported %Inh for c1ccc(-c2cc(-c3c[nH]nc3-c3ccccn3)ccn2)cc1 : what is it?
0

Reported %Inh for NCC(NC(=O)c1cc(-c2cn[nH]c2)c(-c2ccnc3[nH]ccc23)s1)c1ccccc1.O=C(O)C(F)(F)F.O=C(O)C(F)(F)F (centres unmarked) : what is it?
0

Reported %Inh for COc1ccc(CNC(=O)NC2CCN(c3ccnc(Nc4ccc(OC)cc4)n3)C2)cc1 (centres unmarked) : what is it?
0

The values you see were collected from paper PMC5540273.
